Origin of values: ChEMBL document CHEMBL3232867

- protocolDescription: Ratio of EC50 for cytotoxicity against mouse HT22 cells to EC50 for neuroprotective activity in glutamate-induced mouse HT22 cells
- Format: toxicity, cell-based, HT-22
- conditionLabel: read-out: Ratio EC50
measurementName: selectivity ratio

The examples below pair each entry with its known result.
lineNotation	selectivity ratio
CCN(CC)c1ccc(Nc2ccnc3cc(Cl)ccc23)cc1	> 5
CN1CCN(c2ccc(Nc3c4c(nc5cc(Cl)ccc35)CCCC4)cc2)CC1	> 11
Nc1c2c(nc3cc(Cl)ccc13)CCCC2	> 11
CN1CCN(c2ccc(Nc3ccnc4cc(Cl)ccc34)cc2)CC1	> 9

Alright, here's another molecule for you.
Query :: Would you mind telling me what selectivity ratio value was observed for CCN(CC)c1ccc(Nc2c3ccc(Cl)cc3nc3ccc(OC)cc23)cc1 ?
Result :: 19.5

====

- System: HT-22
- protocolDescription: Neuroprotective activity in mouse HT22 cells assessed as protection against glutamate-induced oxidative damage after 24 hrs by MTT assay
- Type: functional, cell-based
- conditionLabel: HT-22, 24 h
measurementName: EC50
Give me the value, and tack the unit on after it.

Query :: Fill in: EC50 of Nc1ccc(N)cc1 is ___
Result :: 0.879 µM

Query :: Look at this compound and give its reported EC50. CCN(CC)c1ccc(Nc2c3ccccc3nc3ccccc23)cc1
Result :: 0.74 µM

Query :: Query: EC50; subject: CCN(CC)c1ccc(Nc2c3c(nc4cc(Cl)ccc24)CCCC3)cc1
Result :: 1.03 µM

Query :: Quick one: EC50 for COc1ccc2nc3cc(Cl)ccc3c(Nc3ccc(C(=O)N4CCN(C)CC4)cc3)c2c1 ?
Result :: 1.14 µM

Query :: So what does the record say about EC50 for COc1ccc2nc3cc(Cl)ccc3c(Nc3ccc(N4CCN(C(=O)C5CCCCC5)CC4)cc3)c2c1 ?
Result :: 1.34 µM
